Values were extracted from the array DNA melting data of Ke et al. (doi:10.1101/2024.01.08.574731).

assay: folding enthalpy; higher = less favourable; fluorescence melt of hairpins on a sequencing array, two-state fit; conditions: sodium 0.088 M
Measured folding enthalpy accompanies every entry in the list below.
Just the number please, in kcal/mol, no unit attached.

| construct.sequence | measured.parameter | result.number |
| --- | --- | --- |
| GTGAACGAAAGTTTACAC ((((((....)))..))) | folding enthalpy | -18.6 |
| GATCATCAGAATGATC ((((((....)))))) | folding enthalpy | -22.6 |
| GCGCGGCGAAAGCTCCGC (((..((....))..))) | folding enthalpy | -20.3 |
| GCCGCAGGAAACTGCAGC ((.((((....)))).)) | folding enthalpy | -19 |
| GATCGTAACGACGATC ((((((....)))))) | folding enthalpy | -34.8 |
| GCCGATCCGAAAGGAGGC (((..(((....)))))) | folding enthalpy | -36.8 |
| GCTAAGAAATTAGC (((((....))))) | folding enthalpy | -16.8 |
| GCATTCGAAAGAATATGC ((((((....)))..))) | folding enthalpy | -24.8 |
| GATCGATAGTTCGATC ((((((....)))))) | folding enthalpy | -39.3 |
| GCCGGGCGAAAGCGTGGC (((..((....))..))) | folding enthalpy | -36.4 |

Which folding enthalpy value is on record for GATCCGGTCGCGGATC ((((((....)))))) ?
-36.7

Which folding enthalpy value is on record for AAACGGAAACGTTT (((((....))))) ?
-21.3

Which folding enthalpy value is on record for GTACCCGAAAGGGTTAC ((((((....))).))) ?
-13.4

Which folding enthalpy value is on record for GATCGGTTTGCCGATC ((((((....)))))) ?
-47.9

Which folding enthalpy value is on record for GGATGAGAAATCATCC ((((((....)))))) ?
-42.4

Which folding enthalpy value is on record for GGCTACGAAAGTATGGCC ((((((....)))..))) ?
-25.7

Which folding enthalpy value is on record for GCGATAGGAAACCATCGC (((((.(....).))))) ?
-34.5

Which folding enthalpy value is on record for GTGGAAGGAAACTTCTAC ((.((((....)))).)) ?
-27.8

###

assay: melting temperature; fluorescence melt of hairpins on a sequencing array, two-state fit, raised by 9.35 °C to match UV melts; conditions: sodium 0.088 M
measured.parameter: Tm (°C)
Just the number please, in °C, no unit attached.

| construct.sequence | unit.tag | Tm |
| --- | --- | --- |
| GGCTCGGGAAACTGGGCC (((.(.(....).).))) | °C | 48.9 |

Which Tm value is on record for GCGAGCTTCGC ((((...)))) ?
49

Which Tm value is on record for GCTCTCGAAAGAGGTAGC ((((((....)))..))) ?
38.4

Which Tm value is on record for GATCGCAGGCGCGATC ((((((....)))))) ?
68.3

Which Tm value is on record for GAAAGCGGAAACGCTCTC ((.((((....)))).)) ?
35

Which Tm value is on record for GGGATTGGAAACAACCCC (((.(((....))).))) ?
42.4

Which Tm value is on record for GATCTACCAATAGATC ((((((....)))))) ?
38.1

Which Tm value is on record for GGTCTGCCGAAAGGCACC (((..(((....)))))) ?
28.8

Which Tm value is on record for GTCTTAGGAAACTGAGAC ((((.((....)).)))) ?
40.9

Which Tm value is on record for GTTGTACGAAAGTAGAAC (((.(((....))).))) ?
44

Which Tm value is on record for GATCTGAAAAGATC (((((....))))) ?
45.6

Which Tm value is on record for GCTTGGCGAAAGCCCCGC ((..(((....)))..)) ?
35.8
